Biological target: NEU4 (Homo sapiens, UniProt Q8WWR8)
Construct: GST; made in house; host or cells: E. coli
Sequence (Q8WWR8 whole entry): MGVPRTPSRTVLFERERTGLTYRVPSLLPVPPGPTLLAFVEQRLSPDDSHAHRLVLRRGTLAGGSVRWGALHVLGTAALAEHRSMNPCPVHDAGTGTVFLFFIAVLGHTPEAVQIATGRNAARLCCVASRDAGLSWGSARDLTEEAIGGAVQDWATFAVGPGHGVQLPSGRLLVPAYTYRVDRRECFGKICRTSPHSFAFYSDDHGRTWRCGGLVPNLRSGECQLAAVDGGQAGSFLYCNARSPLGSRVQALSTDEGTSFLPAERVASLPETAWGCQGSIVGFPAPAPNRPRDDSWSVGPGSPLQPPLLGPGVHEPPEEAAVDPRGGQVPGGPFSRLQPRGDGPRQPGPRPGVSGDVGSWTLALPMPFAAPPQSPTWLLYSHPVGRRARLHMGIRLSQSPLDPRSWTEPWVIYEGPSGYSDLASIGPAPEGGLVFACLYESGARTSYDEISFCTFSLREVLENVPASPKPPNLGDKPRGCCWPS
Experiment: Inhibition assay, 4MU-NANA cleavage, NEU4
Type: biochemical
Details: 4MU-NANA as the substrate; pH 4.5; read-out: IC50 NEU4
IC50 listing for selected compounds.

Identify the reported IC50 for the following entry. "CCCCCC(=O)N[C@H]1[C@H]([C@H](O)[C@H](O)CNC(=O)CCC)OC(C(=O)O)=C[C@@H]1O"
> 500 µM

Identify the reported IC50 for the following entry. CC(=O)N[C@H]1[C@H]([C@H](O)[C@H](O)CO)OC(C(=O)O)=C[C@@H]1NC(=O)C1CCC1 [25d]
> 500 µM

Identify the reported IC50 for the following entry. "CCCC(=O)N[C@H]1[C@H]([C@H](O)[C@H](O)CO)OC(C(=O)O)=C[C@@H]1O"
8.4 µM

Identify the reported IC50 for the following entry. CCC(=O)N[C@H]1C=C(C(=O)O)O[C@@H]([C@H](O)[C@H](O)CO)[C@@H]1NC(C)=O [25a]
> 500 µM

###

Target: NEU3 (Homo sapiens, UniProt Q9UQ49)
Construct: MBP (N); made in house; host or cells: E. coli
Sequence (Q9UQ49 1-428): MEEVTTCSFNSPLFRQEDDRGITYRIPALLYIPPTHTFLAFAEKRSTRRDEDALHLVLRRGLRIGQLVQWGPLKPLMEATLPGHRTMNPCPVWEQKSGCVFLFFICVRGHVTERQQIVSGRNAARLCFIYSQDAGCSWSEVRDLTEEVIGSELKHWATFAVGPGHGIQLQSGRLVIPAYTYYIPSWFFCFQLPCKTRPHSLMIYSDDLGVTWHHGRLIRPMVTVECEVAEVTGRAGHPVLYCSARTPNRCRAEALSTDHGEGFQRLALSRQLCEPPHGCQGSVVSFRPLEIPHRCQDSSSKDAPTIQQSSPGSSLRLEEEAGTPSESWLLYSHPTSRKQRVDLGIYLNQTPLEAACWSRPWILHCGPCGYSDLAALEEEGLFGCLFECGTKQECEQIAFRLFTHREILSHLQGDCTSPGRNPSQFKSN
Assay: Inhibition assay, 4MU-NANA cleavage, NEU3
Assay type: biochemical
Conditions: compounds of Table I; read-out: IC50 against neu3
IC50 listing for selected compounds.

Field: example entries. Status: answers known.
{"compound": "CC(=O)Nc1ccc(C(=O)NC[C@@H](O)[C@@H](O)[C@@H]2OC(C(=O)O)=C[C@H](O)[C@H]2NC(C)=O)cc1 [compound 58]", "readout": "IC50", "result": "≤ 10 µM"}
{"compound": "CC(=O)N[C@H]1C(C(O)C(O)Cn2cc(CO)nn2)OC(C(=O)O)=C[C@H]1O (some centres unmarked) [compound 28, C9-4HMT-DANA]", "readout": "IC50", "result": "≤ 100 µM"}
{"compound": "CCCCCc1cn(C[C@@H](O)[C@@H](O)[C@@H]2OC(C(=O)O)=C[C@H](O)[C@H]2NC(C)=O)nn1 [compound 63]", "readout": "IC50", "result": "≤ 10 µM"}
{"compound": "CC(=O)Nc1cccc(C(=O)NC[C@@H](O)[C@@H](O)[C@@H]2OC(C(=O)O)=C[C@H](O)[C@H]2NC(C)=O)c1 [compound 60]", "readout": "IC50", "result": "≤ 10 µM"}

// next entry
Identify the reported IC50 for the following entry. CC(=O)N[C@@H]1C(N=[N+]=[N-])C=C(C(=O)O)OC1CNOCc1ccccc1 (stereo in doubt) [5c]
< 1 µM

Source of measurements: patent US20220110919A1
